For each entry below, report its Distribution coefficient (K) value.
Test: Distribution coefficient (K) of amides between water-immiscible organic solvent and water (recovery of amides from aqueous solution)
Assay type: physicochemical
Details: DCM / water (equal volumes), 25° C., stirred 0.5 h
Numbers only.

1) CN1C(=O)NC(C)(C)C1=O	1.6

// below: Distribution coefficient (K) requested for another molecule
Using known records, supply Distribution coefficient (K) for CC1(C)COC(=O)N1
0.5
